molecular target: recombinant human PAI-1 (Homo sapiens, UniProt P05121); construct: purchased Molecular Innovations, Inc; assay: Test Example 1: human PAI-1 inhibitory activity (tPA fluorogenic substrate, pH 7.5 Tris buffer); format: biochemical; conditions: Compound Concentration 5 μM; Tris buffer
Sequence (P05121 24-402): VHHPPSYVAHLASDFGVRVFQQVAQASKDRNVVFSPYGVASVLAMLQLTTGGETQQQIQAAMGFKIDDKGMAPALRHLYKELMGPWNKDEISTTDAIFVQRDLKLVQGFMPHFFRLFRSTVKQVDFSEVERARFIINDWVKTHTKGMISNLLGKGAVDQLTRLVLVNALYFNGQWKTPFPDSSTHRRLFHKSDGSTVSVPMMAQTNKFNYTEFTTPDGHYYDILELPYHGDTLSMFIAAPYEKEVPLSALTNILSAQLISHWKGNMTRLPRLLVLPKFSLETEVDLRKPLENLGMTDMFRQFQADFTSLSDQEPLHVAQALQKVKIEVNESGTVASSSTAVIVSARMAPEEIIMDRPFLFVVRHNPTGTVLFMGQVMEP
Reported endpoint: Inhibition Rate of PAI-1 Activity (%)
// note: answer is a bare numeric in %

Qu. Recall the reported Inhibition Rate of PAI-1 Activity (%) of `O=C(O)CCc1cc(-c2ccc(OC(F)(F)F)cc2)ccc1OCCCc1ccccc1` on recombinant human PAI-1 (Homo sapiens, UniProt P05121) and write it down.
Ans. 42

Qu. Recall the reported Inhibition Rate of PAI-1 Activity (%) of `CC(C)c1ccc(Oc2ccc(/C=C/C(=O)O)c(Oc3ccc(C(C)C)cc3)c2)cc1` on recombinant human PAI-1 (Homo sapiens, UniProt P05121) and write it down.
Ans. 32

Qu. Recall the reported Inhibition Rate of PAI-1 Activity (%) of `CC(C)(C)c1ccc(COc2ccc(-c3ccc(C(C)(C)C)cc3)cc2/C=C/C(=O)O)cc1` on recombinant human PAI-1 (Homo sapiens, UniProt P05121) and write it down.
Ans. 25

With those in mind, consider the next compound.
Qu. Recall the reported Inhibition Rate of PAI-1 Activity (%) of `CC(C)(C)c1ccc(-c2ccc(OCc3ccccc3OC(F)(F)F)c(CCC(=O)O)c2)cc1` on recombinant human PAI-1 (Homo sapiens, UniProt P05121) and write it down.
Ans. 37

---

target: recombinant human PAI-1 (Homo sapiens, UniProt P05121); construct: purchased Molecular Innovations, Inc; assay: Test Example 2: human PAI-1 inhibitory activity (tPA fluorogenic substrate, pH 7.4 HEPES buffer); type: biochemical; conditions: human PAI-1; compound concentration 0.3 μM
Each entry below carries its recorded Inhibition Rate of PAI-1 Activity (%).
// note: answer is a bare numeric in %

Study these solved cases before continuing.
Qu. Recall the reported Inhibition Rate of PAI-1 Activity (%) of O=C(O)C(=O)N(CCCCc1ccccc1)c1cc(-c2ccc(OC(F)(F)F)cc2)ccc1OC1C2CC3CC(C2)CC1C3 (centres unmarked) [Compound 634] on recombinant human PAI-1 (Homo sapiens, UniProt P05121) and write it down.
Ans. 37

Qu. Recall the reported Inhibition Rate of PAI-1 Activity (%) of CC(C)(C)c1ccc(Oc2cc(-c3ccc(C(C)(C)C)cc3)ccc2/C=C/C(=O)O)cc1 [Compound 495] on recombinant human PAI-1 (Homo sapiens, UniProt P05121) and write it down.
Ans. 64

Qu. Recall the reported Inhibition Rate of PAI-1 Activity (%) of CC(C)c1ccc(Oc2cc(-c3ccc(OC(F)(F)F)cc3)ccc2CCC(=O)O)cc1 [Compound 510] on recombinant human PAI-1 (Homo sapiens, UniProt P05121) and write it down.
Ans. 8

---
Qu. Recall the reported Inhibition Rate of PAI-1 Activity (%) of CCCCCOc1ccc(-c2ccc(OC(F)(F)F)cc2)cc1CN(CC(=O)O)c1ccc(C(C)(C)C)cc1 [Compound 647] on recombinant human PAI-1 (Homo sapiens, UniProt P05121) and write it down.
Ans. 43

Qu. Recall the reported Inhibition Rate of PAI-1 Activity (%) of O=C(O)C(=O)N(CCCCc1ccccc1)c1cc(-c2ccc(OC(F)(F)F)cc2)ccc1OCCCCCO [Compound 676] on recombinant human PAI-1 (Homo sapiens, UniProt P05121) and write it down.
Ans. 4

Qu. Recall the reported Inhibition Rate of PAI-1 Activity (%) of CC(C)(C)c1ccc(C(=O)c2cc(-c3ccc(OC(F)(F)F)cc3)ccc2OCC(=O)O)cc1 [Compound 549] on recombinant human PAI-1 (Homo sapiens, UniProt P05121) and write it down.
Ans. 22

---

molecular target: recombinant human PAI-1 (Homo sapiens); construct: purchased Molecular Innovations, Inc; experiment: Test Example 2: human PAI-1 inhibitory activity (tPA fluorogenic substrate, pH 7.4 HEPES buffer); assay type: biochemical; conditions: human PAI-1; compound concentration 1 μM
Hi, to clarify the labels: 1 (yes) covers Inhibition Rate of PAI-1 Activity (%) from 60% upward, 0 (no) covers anything below 60%.

# count of solved cases: 4
Qu. Check this compound for Inhibition Rate of PAI-1 Activity (%) at or above 60%: O=C(O)C(=O)N(CCCCc1ccccc1)c1cc(-c2ccc(OC(F)(F)F)cc2)ccc1OC1CCCCCC1 [Compound 659]
Ans. 1 (yes)

Qu. Check this compound for Inhibition Rate of PAI-1 Activity (%) at or above 60%: CC(C)(C)c1ccc(N(CC(=O)O)c2ccccc2Oc2ccc(OC(F)(F)F)cc2)cc1 [Compound 610]
Ans. 0 (no)

Qu. Check this compound for Inhibition Rate of PAI-1 Activity (%) at or above 60%: CC(C)(C)c1ccc(-c2ccc(CCC(=O)O)c(Oc3ccc(OC(F)(F)F)cc3)c2)cc1 [Compound 480]
Ans. 1 (yes)

Qu. Check this compound for Inhibition Rate of PAI-1 Activity (%) at or above 60%: CC(C)(C)c1ccc(Oc2cc(-c3cccc(OC(F)(F)F)c3)ccc2/C=C/C(=O)O)cc1 [Compound 503]
Ans. 1 (yes)

---
Qu. Check this compound for Inhibition Rate of PAI-1 Activity (%) at or above 60%: CC(C)(C)c1ccc(C(=O)c2cc(-c3ccc(OC(F)(F)F)cc3)ccc2OCC(=O)O)cc1 [Compound 549]
Ans. 1 (yes)

Qu. Check this compound for Inhibition Rate of PAI-1 Activity (%) at or above 60%: O=C(O)C(=O)N(Cc1ccc2ccccc2c1)c1ccc(-c2ccc(OC(F)(F)F)cc2)cc1 [Compound 661]
Ans. 0 (no)

Qu. Check this compound for Inhibition Rate of PAI-1 Activity (%) at or above 60%: CC(C)c1ccc(Oc2cc(-c3ccc(OC(F)(F)F)cc3)ccc2CCC(=O)O)cc1 [Compound 510]
Ans. 1 (yes)

Qu. Check this compound for Inhibition Rate of PAI-1 Activity (%) at or above 60%: CC(C)(C)c1ccc(Oc2cc(-c3ccc(C#N)cc3)ccc2OCC(=O)O)cc1 [Compound 471]
Ans. 0 (no)

Qu. Check this compound for Inhibition Rate of PAI-1 Activity (%) at or above 60%: O=C(O)CCc1ccc(-c2ccc(OC(F)(F)F)cc2)cc1OCCCOCc1ccccc1 [Compound 488]
Ans. 0 (no)

Qu. Check this compound for Inhibition Rate of PAI-1 Activity (%) at or above 60%: CC(C)(C)c1cccc(Oc2ccc(-c3ccc(OC(F)(F)F)cc3)cc2/C=C/C(=O)O)c1 [Compound 437]
Ans. 1 (yes)

Qu. Check this compound for Inhibition Rate of PAI-1 Activity (%) at or above 60%: CC(C)(C)c1ccc(Oc2cc(-c3ccc(Cl)cc3)ccc2OCC(=O)O)cc1 [Compound 457]
Ans. 1 (yes)

Qu. Check this compound for Inhibition Rate of PAI-1 Activity (%) at or above 60%: CC(C)(C)c1ccc(CCc2cc(-c3ccc(OC(F)(F)F)cc3)ccc2OCC(=O)O)cc1 [Compound 551]
Ans. 1 (yes)

Qu. Check this compound for Inhibition Rate of PAI-1 Activity (%) at or above 60%: CC(C)c1ccc(-c2ccc(CCC(=O)O)c(Oc3ccc(C(C)(C)C)cc3)c2)cc1 [Compound 519]
Ans. 1 (yes)

Qu. Check this compound for Inhibition Rate of PAI-1 Activity (%) at or above 60%: O=C(O)/C=C/c1ccc(-c2ccc(OC(F)(F)F)cc2)cc1Sc1ccccc1 [Compound 528]
Ans. 0 (no)

Qu. Check this compound for Inhibition Rate of PAI-1 Activity (%) at or above 60%: CCCCCOc1cc(N(CCCCc2ccccc2)C(=O)C(=O)O)ccc1-c1ccc(OC(F)(F)F)cc1 [Compound 654]
Ans. 1 (yes)

Qu. Check this compound for Inhibition Rate of PAI-1 Activity (%) at or above 60%: O=C(O)COc1ccc(-c2ccc(OC(F)(F)F)cc2)cc1Oc1ccc(OCc2ccccc2)cc1 [Compound 492]
Ans. 1 (yes)

Qu. Check this compound for Inhibition Rate of PAI-1 Activity (%) at or above 60%: CC(C)(C)c1ccc(Sc2cc(-c3ccc(OC(F)(F)F)cc3)ccc2/C=C/C(=O)O)cc1 [Compound 462]
Ans. 1 (yes)

---

molecular target: recombinant human PAI-1 (Homo sapiens, UniProt P05121); construct: purchased Molecular Innovations, Inc; test: Test Example 1: human PAI-1 inhibitory activity (tPA fluorogenic substrate, pH 7.5 Tris buffer); format: biochemical; settings: Compound Concentration 25 μM; Tris buffer
Reported endpoint: Inhibition Rate of PAI-1 Activity (%)
// note: answer is a bare numeric in %

Qu. Read the entry `CC(C)(C)c1ccc(CN(C(=O)C(=O)O)c2ccccc2-c2ccc(OC(F)(F)F)cc2)cc1` and write its reported Inhibition Rate of PAI-1 Activity (%).
Ans. 98

---
Qu. Read the entry CC(C)(C)c1ccc(Oc2cc(-c3ccc(OC(F)(F)F)cc3)ccc2OC(F)C(=O)O)cc1 (centres unmarked) and write its reported Inhibition Rate of PAI-1 Activity (%).
Ans. 99

Qu. Read the entry `O=C(O)CCc1cc(-c2ccc(OC(F)(F)F)cc2)ccc1OCc1ccc(C(F)(F)F)cc1` and write its reported Inhibition Rate of PAI-1 Activity (%).
Ans. 80

Qu. Read the entry `CC(C)(C)c1ccc(CN(C(=O)C(=O)O)c2ccc(-c3ccc(OC(F)(F)F)cc3)cc2C(F)(F)F)cc1` and write its reported Inhibition Rate of PAI-1 Activity (%).
Ans. 87

Qu. Read the entry `CC(C)(OCc1ccc(-c2ccc(OC(F)(F)F)cc2)cc1Oc1ccc(C(C)(C)C)cc1)C(=O)O` and write its reported Inhibition Rate of PAI-1 Activity (%).
Ans. 94

Qu. Read the entry `CC(C)(C)c1ccc(CN(C(=O)C(=O)O)c2ccccc2Oc2ccc(OC(F)(F)F)cc2)cc1` and write its reported Inhibition Rate of PAI-1 Activity (%).
Ans. 93

Qu. Read the entry `CC(C)(C)c1ccc(COc2ccc(-c3ccc(C(F)(F)F)cc3)cc2CCC(=O)O)cc1` and write its reported Inhibition Rate of PAI-1 Activity (%).
Ans. 99

Qu. Read the entry `CCCCCOc1ccc(-c2ccc(OC(F)(F)F)cc2)cc1N(Cc1ccccc1)C(=O)C(=O)O` and write its reported Inhibition Rate of PAI-1 Activity (%).
Ans. 93

Qu. Read the entry `CC(C)(C)c1ccc(Oc2cc(Oc3ccc(OC(F)(F)F)cc3)ccc2/C=C/C(=O)O)cc1` and write its reported Inhibition Rate of PAI-1 Activity (%).
Ans. 95

Qu. Read the entry `CC(C)(C)c1ccc(CN(C(=O)C(=O)O)c2ccc(Cl)c(OCc3ccc(OC(F)(F)F)cc3)c2)cc1` and write its reported Inhibition Rate of PAI-1 Activity (%).
Ans. 88

Qu. Read the entry `O=C(O)C(=O)N(CCCCCc1ccccc1)c1ccc(-c2ccc(OC(F)(F)F)cc2)cc1` and write its reported Inhibition Rate of PAI-1 Activity (%).
Ans. 95
